Sourced from the supplement of paper PMC9112550

Test system: Escherichia coli TOP10;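 further: peptides expressed intracellularly from a pBAD plasmid library in pooled LB shake-flask culture, induced with 0.3% L-arabinose, DNA abundance read by NGS, three biological replicates, DESeq2 with apeglm shrinkage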
Experiment: shrunken log2 fold change of peptide-encoding DNA abundance (4.5 h post-induction vs induction); higher = less antimicrobial activity (less host growth inhibition)
Conditions: time post-induction: 4.5 h; library: site-saturation at positions 5, 18, 19, 20
Each record here notes measured shrunken log2 fold change.
PROPERTY LABEL: shrunken log2 fold change

[
  {
    "CONSTRUCT SEQUENCE": "RRIRERPPRLPRPRPRPIFCPRP",
    "EXPERIMENTAL RESULT": 0.0456
  },
  {
    "CONSTRUCT SEQUENCE": "RRIRRRPPRLPRPRPRPGWHPRP",
    "EXPERIMENTAL RESULT": 0.176
  },
  {
    "CONSTRUCT SEQUENCE": "RRIRHRPPRLPRPRPRPTKDPRP",
    "EXPERIMENTAL RESULT": -0.154
  },
  {
    "CONSTRUCT SEQUENCE": "RRIRARPPRLPRPRPRPENAPRP",
    "EXPERIMENTAL RESULT": 0.687
  },
  {
    "CONSTRUCT SEQUENCE": "RRIRFRPPRLPRPRPRPFFMPRP",
    "EXPERIMENTAL RESULT": -0.153
  },
  {
    "CONSTRUCT SEQUENCE": "RRIRIRPPRLPRPRPRPWRMPRP",
    "EXPERIMENTAL RESULT": -0.473
  },
  {
    "CONSTRUCT SEQUENCE": "RRIRQRPPRLPRPRPRPAAQPRP",
    "EXPERIMENTAL RESULT": -0.00152
  }
]
